# System: PC-3 prostate
# test-method-notes: NCI tumour cell line growth inhibition, 48 h
Listed here: items and their measured TGI.
measured-endpoint: TGI

molecule	measured-endpoint	result
COc1cc2c3c(n(CCCN(CCN)CCCn4c5c(c6cc(OC)c(OC)cc6c4=O)C(=O)c4cc6c(cc4-5)OCO6)c(=O)c2cc1OC)-c1cc2c(cc1C3=O)OCO2	TGI	> 45.2 µM
Cc1cc2c(cc1Cl)SC(c1ccccc1)C(=O)NS2(=O)=O (centres undefined)	TGI	70.7 µM
CC/C(=C(/c1ccc(OCCN(C)C)cc1)c1ccc(OC(=O)CCC(=O)c2c(C)[nH]c(/C=C3\N=C(c4ccc[nH]4)C=C3OC)c2C)cc1)c1ccccc1	TGI	17.1 µM
O=C1CS(=O)(=O)C(c2cccc(Oc3ccccc3)c2)N1c1cccc(Cl)c1 (centres undefined)	TGI	> 100 µM
N#Cc1ncc(-c2ccc(C(F)(F)F)cc2)c(NCc2cc(C(F)(F)F)cc(C(F)(F)F)c2)n1	TGI	8.48 µM
O=C(Nc1nc(C23CC4CC(CC(C4)C2)C3)cs1)c1c(O)c2ccccc2[nH]c1=O	TGI	> 100 µM
CCOC(O)(NC(=O)C(C(F)(F)F)C(F)(F)F)C(F)(F)F (centres undefined)	TGI	> 100 µM
CCCc1cc(O)c2c3c(c(=O)oc2c1)CN(C)CC3	TGI	> 100 µM
CC1=C(/C=C/C(=O)O)C(C)(C)CCC1	TGI	> 100 µM
c1ccc2c(c1)Nc1ccccc1[P+]21c2ccccc2Nc2ccccc21	TGI	0.609 µM
CC(=O)CCc1ccc(OC2OC(COC(=O)c3cc(O)c(O)c(O)c3)C(O)C(O)C2OC(=O)/C=C/c2ccccc2)cc1 (centres undefined)	TGI	> 100 µM
Cn1ccc(C(=O)N2CCSC2=S)c(OCc2ccccc2)c1=O	TGI	> 100 µM
Nc1cc(C(=O)O)[nH]c(=O)n1	TGI	> 100 µM
CC(C)CC[C@H](O)[C@@H](C)[C@H]1[C@@H](OC2OC(C)C(O)C(O)C2O)C[C@H]2[C@@H]3CC=C4C[C@@H](O)CC[C@]4(C)[C@H]3[C@@H](O)C[C@]12C (some centres undefined)	TGI	> 100 µM
CCCN1CC=C(c2cc(C(=O)OCC)[nH]c2-c2cc(C)no2)C1=O	TGI	> 100 µM
Nc1ccc(-c2cssc2=S)cc1	TGI	> 100 µM
COc1cc2c(c(O)c1OC)C(O)C1CCC(=O)N1C2c1cccc2ccccc12 (centres undefined)	TGI	> 100 µM
O=C(O)c1cc(=O)[nH]c(SCc2ccccc2)n1	TGI	> 100 µM
Cc1cc(NS(=O)(=O)c2ccc(NC(=O)c3ccc4[nH]c5ccccc5c(=O)c4c3)cc2)no1	TGI	> 100 µM

====

# Test system: HOP-62 NSCLC
# test-method-notes: NCI tumour cell line growth inhibition, 48 h
measured-endpoint: TGI

compound	system	result
CC1(Cl)CC2OC3(Br)C=CC(C)(O)C2(CC1Br)C3(C)C (centres undefined)	HOP-62 NSCLC	> 100 µM
O=S(=O)(O)CCCC1S(=O)(=O)OCCOS1(=O)=O	HOP-62 NSCLC	> 100 µM
N#Cc1n[nH]n(C2CCCCC2)c1=O	HOP-62 NSCLC	> 100 µM
CCOc1ccc(-c2cnnn2-c2nonc2-n2cccc2)cc1	HOP-62 NSCLC	> 100 µM
CC(=O)Oc1cc(C)c2c(c1OC(C)=O)CC1(O2)[C@@H](C)CCC2[C@@]3(C)CC[C@H](OC(C)=O)C(C)(C)C3CC[C@]21C (some centres undefined)	HOP-62 NSCLC	8.3 µM
C/C(=C\c1ccccc1)C(=O)NCc1ccc(C(=O)NCCC(C)C)cc1	HOP-62 NSCLC	48 µM
COc1ccc2c(c1O)C13CCN(C)C(C2)C1CCC1(C3)OCCO1 (centres undefined)	HOP-62 NSCLC	> 100 µM
Cc1nc2ccc(Cl)cc2c2c1CCS2	HOP-62 NSCLC	> 100 µM
CS(=O)(=O)OC1CN2CCC1CC2 (centres undefined)	HOP-62 NSCLC	> 100 µM
